Test system: SMB
Test: Antiprion activity against Scrapie prion protein-mediated scrapie in mouse SMB cells assessed as remaining PrP-Sc level at 10 uM after 5 days by Bradford assay relative to control
Assay type: cell-based
Measure: Remaining PrP-Sc level (%)
Answers are plain numbers, in %.

Reference set (5 entries):
COc1ccccc1NC(=O)C(=O)c1c[nH]c2ccccc12
140
Cc1[nH]c2ccccc2c1C(=O)C(=O)Nc1ccccc1
41.6
CCc1cccc(NC(=O)C(=O)c2c[nH]c3ccccc23)c1
37.9
Cc1csc(NC(=O)C(=O)c2c[nH]c3ccccc23)n1
105
O=C(Nc1cccnc1)C(=O)c1c[nH]c2ccccc12
8

Okay, here is my list. What is Remaining PrP-Sc level for each of these?
1. Cn1cc(C(=O)C(=O)NCc2ccccc2)c2ccccc21
2. Cn1cc(C(=O)C(=O)Nc2ccc(O)cc2)c2ccccc21
3. O=C(Nc1cccc(Cl)c1)C(=O)c1c[nH]c2ccccc12
4. O=C(Nc1cccc(CO)c1)C(=O)c1c[nH]c2ccccc12
5. Cc1[nH]c2ccccc2c1C(=O)C(=O)Nc1cccc(Oc2ccccc2)c1
6. COc1cccc(NC(=O)C(=O)c2c[nH]c3ccccc23)c1
7. CC(=O)c1cccc(NC(=O)C(=O)c2c[nH]c3ccccc23)c1

148
47.3
40
17.6
103
17.5
98.8

###

Could you please report measured Activity for the items listed next?
Tested on: SMB
Test: Antiprion activity against Scrapie prion protein-mediated scrapie in mouse SMB cells assessed as remaining PrP-Sc level at 1 uM after 5 days by Bradford assay relative to control
Format: cell-based
One number for each entry, in %.

Reference set (3 entries):
COc1ccc(NC(=O)C(=O)c2c[nH]c3ccccc23)cn1
4.9
O=C(Nc1ccc(N2CCCCC2)cc1)C(=O)c1c[nH]c2ccccc12
6.5
O=C(Nc1ccc(-c2cnco2)cc1)C(=O)c1c[nH]c2ccccc12
16.8

Okay, here is my list. What is Activity for each of these?
1. CCOc1ccc(CNC(=O)C(=O)c2c[nH]c3ccccc23)cc1
2. O=C(Nc1cccc(F)c1)C(=O)c1c[nH]c2ccccc12
3. COc1ccc(NC(=O)C(=O)c2c[nH]c3ccccc23)cc1
4. CSc1ccc(CNC(=O)C(=O)c2c[nH]c3ccccc23)cc1
5. O=C(Nc1ccc(-n2cccn2)cc1)C(=O)c1c[nH]c2ccccc12

1: 6.5; 2: 27.1; 3: 6.7; 4: 5.6; 5: 7

Okay, here is my list. What is Activity for each of these?
1. O=C(Nc1ccc(F)nc1)C(=O)c1c[nH]c2ccccc12
2. O=C(Nc1ccc(Cl)cc1)C(=O)c1c[nH]c2ccccc12
3. O=C(Nc1cnc2ccccc2c1)C(=O)c1c[nH]c2ccccc12

[52.3, 5.9, 41.3]

Okay, here is my list. What is Activity for each of these?
1. Cc1ccc(NC(=O)C(=O)c2c[nH]c3ccccc23)cc1
2. O=C(Nc1ccc(F)c(F)c1)C(=O)c1c[nH]c2ccccc12

4.1
1.4

Okay, here is my list. What is Activity for each of these?
1. O=C(Nc1ccc(OC(F)(F)F)cc1)C(=O)c1c[nH]c2ccccc12
2. O=C(Nc1ccc(C(F)(F)F)cc1)C(=O)c1c[nH]c2ccccc12

1. 6.7
2. 6.1

Okay, here is my list. What is Activity for each of these?
1. O=C(Nc1cccc(O)c1)C(=O)c1c[nH]c2ccccc12
2. COc1ccc(CNC(=O)C(=O)c2c[nH]c3ccccc23)cc1OC
3. CN(C)c1ccc(NC(=O)C(=O)c2c[nH]c3ccccc23)cc1

52.4
19.3
7.2

Okay, here is my list. What is Activity for each of these?
1. O=C(Nc1ccc(F)cc1)C(=O)c1c[nH]c2ccccc12
2. O=C(Nc1ccc(-n2cccc2)cc1)C(=O)c1c[nH]c2ccccc12
3. Cc1ccc(NC(=O)C(=O)c2c[nH]c3ccccc23)cc1C
4. O=C(Nc1ccc(N2CCOCC2)cc1)C(=O)c1c[nH]c2ccccc12

1. 10.3
2. 17.1
3. 48.7
4. 4.6

Look up Activity: COc1cc(NC(=O)C(=O)c2c[nH]c3ccccc23)ncn1
23
